The reader will find reported % of binding to human Ang-2 values listed item by item below.
Molecular target: T1, Human Ang-1/2 BsmI chimeric molecule (human)
T1 chain: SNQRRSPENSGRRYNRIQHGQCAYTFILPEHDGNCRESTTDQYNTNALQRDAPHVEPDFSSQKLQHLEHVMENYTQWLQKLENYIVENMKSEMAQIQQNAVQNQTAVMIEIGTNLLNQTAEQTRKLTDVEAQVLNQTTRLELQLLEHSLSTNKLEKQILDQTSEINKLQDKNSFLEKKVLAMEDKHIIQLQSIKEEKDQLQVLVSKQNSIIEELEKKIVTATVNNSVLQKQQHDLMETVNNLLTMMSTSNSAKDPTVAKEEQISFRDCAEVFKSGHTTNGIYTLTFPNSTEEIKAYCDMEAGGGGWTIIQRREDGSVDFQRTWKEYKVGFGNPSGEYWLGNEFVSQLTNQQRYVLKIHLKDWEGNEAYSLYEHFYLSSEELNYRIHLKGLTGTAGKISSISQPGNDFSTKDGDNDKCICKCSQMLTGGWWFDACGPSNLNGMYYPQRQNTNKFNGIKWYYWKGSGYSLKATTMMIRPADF
Assay: ELISA
Metric Name: % of binding to human Ang-2 (%)

>>> assay_result("mAb 3.3.2 (antibody, V domains shown, Human hybridoma IgG (XenoMouse); also called 3.3.1; x3.3) VH: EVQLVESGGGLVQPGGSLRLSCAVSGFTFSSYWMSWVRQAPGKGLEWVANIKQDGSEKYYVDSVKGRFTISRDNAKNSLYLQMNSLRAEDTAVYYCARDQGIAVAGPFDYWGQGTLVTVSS VL: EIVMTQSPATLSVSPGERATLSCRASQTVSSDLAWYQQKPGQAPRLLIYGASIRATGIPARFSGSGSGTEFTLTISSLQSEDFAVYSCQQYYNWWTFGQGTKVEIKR")
100
>>> assay_result("mAb 5.28.1 (antibody, V domains shown, Human hybridoma IgG (XenoMouse); also called x5.28) VH: EVQLVESGGIVVQPGGSLRLSCAASGFTFDDYTMHWVRQTPGKGLEWVSLISWDGGSTYYADSVKGRFTISRDNSKNSLYLQMNSLRTEDTALYYCAKDIDIAVAGTGFDHWGQGTLVTVSS VL: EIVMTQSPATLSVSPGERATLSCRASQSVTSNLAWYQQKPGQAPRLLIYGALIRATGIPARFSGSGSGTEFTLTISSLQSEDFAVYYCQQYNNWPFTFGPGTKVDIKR")
100
